# STUDY SYSTEM: human μ-opiate receptor (Homo sapiens)
# Construct: purchased NEN, Zaventem, Belgium RB-HOM; host or cells: CHO-K1 cells (membrane preparation)
# Sequence (P35372 whole entry): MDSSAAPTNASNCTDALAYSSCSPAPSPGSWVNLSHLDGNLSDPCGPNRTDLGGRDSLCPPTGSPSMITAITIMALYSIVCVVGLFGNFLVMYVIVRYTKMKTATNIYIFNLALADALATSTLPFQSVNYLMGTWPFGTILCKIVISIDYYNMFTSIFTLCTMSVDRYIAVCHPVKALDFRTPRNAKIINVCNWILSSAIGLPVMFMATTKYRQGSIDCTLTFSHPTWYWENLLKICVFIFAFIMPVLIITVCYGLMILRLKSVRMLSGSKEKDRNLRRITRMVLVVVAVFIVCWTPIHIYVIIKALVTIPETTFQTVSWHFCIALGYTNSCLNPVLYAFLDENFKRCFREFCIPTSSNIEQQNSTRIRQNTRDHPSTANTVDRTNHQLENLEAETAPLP
# TEST DESCRIPTION: Measurement of μ binding ([3H]-naloxone displacement, SPA, CHO-K1 membrane preparation)
# CONDITION SET: 1.5 h; % inhibition of specific [3H]-naloxone binding at 1 μM test substance
Counter-ions that a name gives are not always drawn.

COMPOUND: Cc1ccccc1C1(O)CCC2(CC1CN(C)C)OCCc1c2oc2ccccc12 (stereo not drawn)
inhibition at 1 µM (%): 56
//
COMPOUND: COc1cccc(C2(O)CCC3(CC2CN(C)C)NCCc2c3[nH]c3ccccc23)c1 (stereo not drawn) [Example 1, dihydrochloride]
inhibition at 1 µM (%): 40
//
COMPOUND: CN(C)CC1CC2(CCC1(O)c1ccccc1)OCCc1c2oc2ccccc12 (stereo not drawn)
inhibition at 1 µM (%): 58
//
COMPOUND: CN(C)CC1CC2(CCC1(O)c1cccc(F)c1)OCCc1c2oc2ccccc12 (stereo not drawn)
inhibition at 1 µM (%): 73
//
COMPOUND: CN(C)CC1CC2(CCC1(O)c1ccccc1)NCCc1c2[nH]c2ccccc12 (stereo not drawn)
inhibition at 1 µM (%): 57
//
COMPOUND: CN(C)CC1CC2(CCC1(O)c1ccccc1)OCCc1c2[nH]c2ccccc12 (stereo not drawn)
inhibition at 1 µM (%): 74
//
COMPOUND: CSc1ccc(C2(O)CCC3(CC2CN(C)C)NCCc2c3[nH]c3cc(F)ccc23)cc1 (stereo not drawn)
inhibition at 1 µM (%): 54
//
COMPOUND: CN(C)CC1CC2(CCC1(O)c1cccc(F)c1)OCCc1c2[nH]c2ccccc12 (stereo not drawn) [Example 27, hydrochloride]
inhibition at 1 µM (%): 64
//
COMPOUND: COc1cccc(C2(O)CCC3(CC2CN(C)C)c2[nH]c4ccccc4c2CCN3C(C)=O)c1 (stereo not drawn) [Example 2, hydrochloride]
inhibition at 1 µM (%): 65

###

compounds and their reported inhibition at 10 µM
# STUDY SYSTEM: 5HT uptake (serotonin reuptake), synaptosomes from hypothalamus of male rat brains (Rattus norvegicus)
# Construct: synaptosomes are freshly isolated from areas of rat brain; from tissue; host or cells: synaptosomes (P2 fraction) from hypothalamus of male rat brains
# Sequence (P31652 whole entry): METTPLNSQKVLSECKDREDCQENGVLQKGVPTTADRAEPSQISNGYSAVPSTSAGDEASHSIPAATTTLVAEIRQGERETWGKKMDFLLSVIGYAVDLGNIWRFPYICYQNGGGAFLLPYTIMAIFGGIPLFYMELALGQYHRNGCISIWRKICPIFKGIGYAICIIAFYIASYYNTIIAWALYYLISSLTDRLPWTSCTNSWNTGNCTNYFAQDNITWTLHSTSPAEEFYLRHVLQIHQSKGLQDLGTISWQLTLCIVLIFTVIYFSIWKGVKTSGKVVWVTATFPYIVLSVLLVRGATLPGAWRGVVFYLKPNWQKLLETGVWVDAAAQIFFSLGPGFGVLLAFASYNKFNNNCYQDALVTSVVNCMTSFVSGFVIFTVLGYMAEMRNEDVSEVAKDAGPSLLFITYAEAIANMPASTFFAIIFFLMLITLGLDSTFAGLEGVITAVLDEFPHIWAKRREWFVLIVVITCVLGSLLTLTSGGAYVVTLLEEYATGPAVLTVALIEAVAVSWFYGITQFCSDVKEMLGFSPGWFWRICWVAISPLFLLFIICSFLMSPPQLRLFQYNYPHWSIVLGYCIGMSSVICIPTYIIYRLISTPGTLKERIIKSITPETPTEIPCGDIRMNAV
# TEST DESCRIPTION: Serotonin reuptake inhibition (5HT uptake inhibition) in rat brain synaptosomes
# Format: biochemical
OBSERVABLE: inhibition at 10 µM (%)

COMPOUND: CN(C)CC1CC2(CCC1(O)c1ccc(C(F)(F)F)cc1)OCCc1c2oc2ccccc12 (centres unmarked) [Example 13]
ENDPOINT VALUE: 60

COMPOUND: CN(C)CC1CC2(CCC1(O)c1ccccc1)SCCc1c2[nH]c2ccccc12 (centres unmarked) [Example 9]
ENDPOINT VALUE: 81

COMPOUND: CN(C)CC1CC2(CCC1(O)c1cccc(F)c1)SCCc1c2[nH]c2ccccc12 (centres unmarked) [Example 14]
ENDPOINT VALUE: 61

COMPOUND: CSc1ccc(C2(O)CCC3(CC2CN(C)C)OCCc2c3sc3ccccc23)cc1 (centres unmarked) [Example 31]
ENDPOINT VALUE: 82

COMPOUND: CN(C)CC1CC2(CCC1(O)c1ccc(C(F)(F)F)cc1)NCCc1c2[nH]c2cc(F)ccc12 (centres unmarked) [Example 33]
ENDPOINT VALUE: 78

From: patent US7776848B2
